Provide the recorded remaining at 72 h for the entries that follow.
- RUN_DESCRIPTION: Light stability test (Test Example 3)
- Format: physicochemical
- EXPERIMENTAL_PARAMETERS: glass plate, uv light
Numbers only, in %.

Guide cases for remaining at 72 h, answers given:
| COMPOUND | UNITS_LABEL | QUANTITATIVE_READOUT |
| --- | --- | --- |
| C#CC(OC(=O)[C@@H]1[C@H](CC(C)(Cl)Cl)C1(C)C)c1cccc(Oc2ccccc2)c1 (relative stereo) [(13) [Cis-isomer]] | % | 88 |
| CC1(C)[C@H](C(=O)OCc2cccc(Oc3ccccc3)c2)[C@@H]1CC(Cl)(Cl)Cl (relative stereo) [(1) [Cis-isomer]] | % | 91 |
| C=CCC1=C(C)C(OC(=O)C2C(CC(Cl)(Cl)Cl)C2(C)C)CC1=O (stereo not drawn) [(38) [Mixture]] | % | 0 |

State recorded remaining at 72 h for all listed compounds.
1. CC1(C)C(CC(Cl)(Cl)Cl)C1C(=O)OC(C#N)c1cccc(Oc2ccccc2)c1 (stereo not drawn) [(7) [Mixture]]
2. C#CC(OC(=O)C1C(CC(Cl)(Cl)Cl)C1(C)C)c1cccc(Oc2ccc(Cl)cc2)c1 (stereo not drawn) [(21) [Mixture]]
3. CC1(C)C(CC(Cl)(Cl)Cl)C1C(=O)OCc1coc(Cc2ccccc2)c1 (stereo not drawn) [(28) [Mixture]]

*A*
84
78
0

For every item in the list below, what is its measured remaining at 72 h?
1. CC1(C)C(CC(Cl)(Cl)Cl)C1C(=O)OC(C#N)c1cccc(Oc2ccc(Cl)cc2)c1 (stereo not drawn) [(15) [Mixture]]
2. C#CC(OC(=O)C1C(CC(Cl)(Cl)Cl)C1(C)C)c1cccc(Oc2ccccc2)c1 (stereo not drawn) [(11) [Mixture]]
3. CC1(C)C(CC(Cl)(Cl)Cl)C1C(=O)OCN1C(=O)C2=C(CCCC2)C1=O (stereo not drawn) [(37) [Mixture]]

*A*
93
71
0
